- subjectOfTest: recombinant sEH (Homo sapiens, UniProt P34913)
- protocolText: biochemical screening assay for inhibition of soluble epoxide hydrolase (fluorometric, Phome substrate)
Where a name gives a salt, the structure may show the parent alone.
Note to self: use True only for IC50 readings below 0.02 µM; a reading exactly at 0.02 µM still gets False.

Previously resolved entries follow.
O=C(NC1CCCCC1)N[C@H]1CO[C@H]2[C@@H]1OC[C@@H]2Oc1cnc(Cl)c(F)c1 [Example 64]: True
CN1CCN(C(=O)c2ccc(O[C@H]3CO[C@H]4[C@@H]3OC[C@@H]4NC(=O)NC3CCCCC3)cc2)CC1 [Example 119, trifluoroacetate]: False
CSc1cccc(NC(=O)N[C@H]2CO[C@H]3[C@@H]2OC[C@@H]3C#Cc2ccsc2)c1 [Example 312]: False
Cc1cncc(O[C@H]2CO[C@H]3[C@@H]2OC[C@@H]3NC(=O)NC2CCCCC2)c1 [Example 36]: True
COC[C@@H](NC(=O)N[C@H]1CO[C@H]2[C@@H]1OC[C@@H]2Oc1cccnc1C)c1ccccc1 [Example 237]: False

Exercise: IC50 under 0.02 µM? Item: Cc1ncccc1O[C@H]1CO[C@H]2[C@@H]1OC[C@@H]2NC(=O)NC1CCOC(C)C1 (stereo partly shown) [Example 91]
Solution: False

Exercise: Field: below-cutoff. Rule: recorded IC50 strictly less than 0.02 µM. Subject: COc1cc(CNC(=O)N[C@H]2CO[C@H]3[C@@H]2OC[C@@H]3Oc2cccnc2C)ccn1 [Example 203]
Solution: False

###

- subjectOfTest: recombinant sEH (Homo sapiens)
- protocolText: biochemical screening assay for inhibition of soluble epoxide hydrolase (fluorometric, Phome substrate)
pIC50: −log10 of the molar value. Structures can show the parent of a compound that is named as a salt.
Range-based classes on measured pIC50: bin A (below 7), bin B (7 to below 8), bin C (8 or more)

O=C(NC1CCCCC1)N[C@H]1CO[C@H]2[C@@H]1OC[C@@H]2Sc1ccc(F)cc1 [Example 15]: bin C
O=C(NC1CCCCC1)N[C@H]1CO[C@H]2[C@@H]1OC[C@@H]2Oc1cccc(C(F)(F)F)c1 [Example 125]: bin C
Cc1ncccc1O[C@H]1CO[C@H]2[C@@H]1OC[C@@H]2NC(=O)NC1CCCN(C(=O)C2CC2)C1 (stereo partly shown) [Example 85]: bin B
Cc1nc(-c2cccc(O[C@H]3CO[C@H]4[C@@H]3OC[C@@H]4NC(=O)NC3CCCCC3)c2)no1 [Example 129]: bin C
Cc1cccc(NC(=O)N[C@H]2CO[C@@H]3[C@@H]2OC[C@H]3C#Cc2ccccc2)c1 [Example 289]: bin B

Exercise: The entry to classify is Cc1ncccc1O[C@H]1CO[C@H]2[C@@H]1OC[C@@H]2NC(=O)NC(C)(C)C(F)(F)F [Example 232] ; which class holds it?
Solution: bin A

Exercise: Please report the category associated with Cc1ncccc1O[C@H]1CO[C@H]2[C@@H]1OC[C@@H]2NC(=O)NC1(C)COC1 [Example 240] , nothing else.
Solution: bin A

Exercise: Which pIC50 band matches NC[C@H]1CO[C@H]2[C@@H]1OC[C@@H]2N(Cc1ccccc1)C(=O)NC1CCCCC1 [Example 7, trifluoroacetate] ?
Solution: bin A

Exercise: Class (by measured pIC50) for Cc1cc(C)c(S[C@H]2CO[C@H]3[C@@H]2OC[C@@H]3NC(=O)NC2CCCCC2)cn1 [Example 53]
Solution: bin C

Exercise: Kindly identify the class of Cc1ncccc1O[C@H]1CO[C@H]2[C@@H]1OC[C@@H]2NC(=O)NC(C)(C)c1ccncc1 [Example 250] .
Solution: bin A

###

Quick list: IC50 per entry.
- subjectOfTest: recombinant sEH (Homo sapiens, UniProt P34913)
- Sequence (P34913 1-555): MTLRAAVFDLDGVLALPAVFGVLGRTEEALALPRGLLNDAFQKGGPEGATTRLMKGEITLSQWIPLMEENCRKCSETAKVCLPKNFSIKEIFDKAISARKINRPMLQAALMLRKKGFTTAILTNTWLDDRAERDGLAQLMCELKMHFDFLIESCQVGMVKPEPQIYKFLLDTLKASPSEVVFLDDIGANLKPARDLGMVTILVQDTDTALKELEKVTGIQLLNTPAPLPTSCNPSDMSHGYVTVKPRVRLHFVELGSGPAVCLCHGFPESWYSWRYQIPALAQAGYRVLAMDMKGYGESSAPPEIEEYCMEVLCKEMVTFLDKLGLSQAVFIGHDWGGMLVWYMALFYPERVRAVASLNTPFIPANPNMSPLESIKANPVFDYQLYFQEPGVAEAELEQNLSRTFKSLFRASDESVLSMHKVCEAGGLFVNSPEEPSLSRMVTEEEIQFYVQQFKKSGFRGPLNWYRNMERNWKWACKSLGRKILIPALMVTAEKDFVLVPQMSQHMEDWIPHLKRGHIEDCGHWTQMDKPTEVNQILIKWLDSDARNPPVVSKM
- protocolText: biochemical screening assay for inhibition of soluble epoxide hydrolase (fluorometric, Phome substrate)
Write it as a number; the unit nM goes unstated.

O=C(N[C@H]1CO[C@H]2[C@@H]1OC[C@@H]2Oc1ccc(F)cc1)N[C@H]1CCC[C@@H]1OCc1ccccc1 [Example 153]: 62

The compound listed as O=C(Nc1ccc2c(c1)CCC2)N[C@H]1CO[C@H]2[C@@H]1OC[C@@H]2/C=C\c1ccsc1 [Example 341] has a reported IC50 of 90

Please fill in: IC50 reported for Cc1ncccc1O[C@H]1CO[C@H]2[C@@H]1OC[C@@H]2NC(=O)NCC1(C)CCCO1 (stereo partly shown) [Example 209] = 819

Briefly, IC50 measured for Cc1ncccc1O[C@H]1CO[C@H]2[C@@H]1OC[C@@H]2NC(=O)NCc1ccccc1OC(F)F [Example 188] : 1

Looking up O=C(Nc1ccc(OCc2ccccc2)cc1)NC1COC2C(C=Cc3ccccc3)COC12 (stereo not shown) [Example 324] , I see its IC50 listed as 81

So, Cc1ncccc1O[C@H]1CO[C@H]2[C@@H]1OC[C@@H]2NC(=O)NCC1CC(=O)N(C(C)C)C1 (stereo partly shown) [Example 253] ? Its IC50 was 792

###

Listed next: entries and their corresponding IC50.
- subjectOfTest: recombinant sEH (Homo sapiens)
- Sequence (P34913 1-555): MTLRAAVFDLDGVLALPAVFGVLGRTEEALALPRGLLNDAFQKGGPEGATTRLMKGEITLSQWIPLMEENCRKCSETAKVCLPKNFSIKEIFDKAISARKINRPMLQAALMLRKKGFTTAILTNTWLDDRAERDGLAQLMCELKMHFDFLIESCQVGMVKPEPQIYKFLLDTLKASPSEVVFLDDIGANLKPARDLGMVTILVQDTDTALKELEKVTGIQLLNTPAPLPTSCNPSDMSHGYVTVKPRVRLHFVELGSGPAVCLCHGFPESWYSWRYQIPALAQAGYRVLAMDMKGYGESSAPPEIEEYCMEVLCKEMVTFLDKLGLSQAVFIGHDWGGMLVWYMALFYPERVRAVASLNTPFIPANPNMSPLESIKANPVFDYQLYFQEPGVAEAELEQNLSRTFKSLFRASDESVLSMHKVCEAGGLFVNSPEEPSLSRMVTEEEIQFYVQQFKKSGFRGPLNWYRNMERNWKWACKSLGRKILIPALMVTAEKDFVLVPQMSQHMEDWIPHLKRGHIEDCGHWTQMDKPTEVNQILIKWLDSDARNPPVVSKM
- protocolText: biochemical screening assay for inhibition of soluble epoxide hydrolase (fluorometric, Phome substrate)
Counter-ions that a name gives are not always drawn.
Report the value in nM with no unit label.

Past entries and their recorded results:
Cc1nc(CNC(=O)N[C@H]2CO[C@H]3[C@@H]2OC[C@@H]3Oc2cccnc2C)cs1: 1680
O=C(NC1CCCCC1)N[C@H]1CO[C@H]2[C@@H]1OC[C@@H]2Oc1ccc(C(=O)N2CCNCC2)cc1 [Example 126, trifluoroacetate]: 30
COc1cccc(CNC(=O)N[C@H]2CO[C@H]3[C@@H]2OC[C@@H]3Oc2cccnc2C)n1: 345
O=C(NC1CCCCC1)N[C@H]1CO[C@H]2[C@@H]1OC[C@H]2O: 305
O=C(Nc1ccc(OCc2ccccc2)cc1)NC1COC2C(CCc3ccccc3)COC12 (stereo not shown): 80
O=C(NC1CCCCC1)N[C@H]1CO[C@H]2[C@@H]1OC[C@@H]2Oc1ccc(N2CCCC2)nc1: 1

Summary line: NC(=O)c1cccc(O[C@H]2CO[C@H]3[C@@H]2OC[C@@H]3NC(=O)NC2CCCCC2)c1 , recombinant sEH (Homo sapiens), reported IC50 = 6

###

- subjectOfTest: recombinant sEH (Homo sapiens, UniProt P34913)
- protocolText: biochemical screening assay for inhibition of soluble epoxide hydrolase (fluorometric, Phome substrate)
propertyLabel: log10(IC50) (log10 of the value in nM)
Base-10 log of IC50, unit nM.

O=C(NC1CCCCC1)N[C@H]1CO[C@H]2[C@@H]1OC[C@@H]2Oc1cncc(F)c1: 1.08
O=C(NC1CCCCC1)N[C@H]1CO[C@H]2[C@@H]1OC[C@@H]2Oc1ccccc1C(=O)N1CCCC1: 2.15
CC1CCC(NC(=O)N[C@H]2CO[C@H]3[C@@H]2OC[C@@H]3Oc2ccc(F)cc2)CC1 (stereo partly shown): 0.90
N#C[C@H]1CO[C@H]2[C@@H]1OC[C@@H]2NC(=O)Nc1ccc(OC(F)(F)F)cc1: 1.38
O=C(NC1CCCCC1)N[C@H]1CO[C@H]2[C@@H]1OC[C@@H]2Oc1cc(Br)ccc1Cl: 0.30

Read the next record carefully.
log10(IC50) reported for this molecule Cc1ncccc1O[C@H]1CO[C@H]2[C@@H]1OC[C@@H]2NC(=O)NC1CCOc2ccccc21 (stereo partly shown) : 0.48
